Data provenance: paper PMC6152393

System: Erwinia amylovora PMV6076
MEASUREMENT PROTOCOL: Antibacterial activity (MIC), growth inhibition in microtiter plates
Type: cell-based
MEASUREMENT CONTEXT: Trypticase Soy Broth, 25 °C, 48 h, OD 600 nm (Bioscreen C), peptides at 3.1, 6.2, 12.5, 25, 50 μM, three replicates, experiment repeated twice, MIC = lowest concentration with no growth
Peptide text beside a SMILES is read from it.
Reported MIC Intervals, Ea values for a set of compounds

Recorded MIC Intervals, Ea, per entry:
>  <COMPOUND>
CC(C)C[C@@H]1NC(=O)[C@H](CCCCN)NC(=O)[C@H](CCCCN)NC(=O)[C@H](CCCCN)NC(=O)[C@H](CCCCN)NC(=O)[C@H](Cc2ccccc2)NC(=O)[C@H](CCCCN)NC(=O)[C@H](CC(C)C)NC(=O)[C@H](CCCCN)NC(=O)[C@H](CCC(N)=O)NC1=O [BPC916] (cyclo(FKKKKLQKLK))

>  <PROPERTY LABEL>
MIC Intervals, Ea

>  <ASSAY RESULT>
>50 µM

$$$$
>  <COMPOUND>
CC(C)C[C@@H]1NC(=O)[C@H](CCCCN)NC(=O)[C@H](CCCCN)NC(=O)[C@H](CCCCN)NC(=O)[C@H](Cc2ccccc2)NC(=O)[C@H](CC(C)C)NC(=O)[C@H](CCCCN)NC(=O)[C@H](CCCCN)NC(=O)[C@H](CCCCN)NC(=O)[C@H](CCC(N)=O)NC1=O [BPC480] (cyclo(FKKKLQKKKL))

>  <PROPERTY LABEL>
MIC Intervals, Ea

>  <ASSAY RESULT>
>50 µM

$$$$

Alright, here's another compound for you.
Task item: Given CC(C)C[C@@H]1NC(=O)[C@H](CCCCN)NC(=O)[C@H](CCCCN)NC(=O)[C@H](CCC(N)=O)NC(=O)[C@H](Cc2ccccc2)NC(=O)[C@H](CCCCN)NC(=O)[C@H](CCCCN)NC(=O)[C@H](CC(C)C)NC(=O)[C@H](CCCCN)NC(=O)[C@H](CCCCN)NC1=O [BPC490] (cyclo(FQKKLKKLKK)) , state its recorded MIC Intervals, Ea.
Reply: 12.5 to 25 µM

###

Reported MIC Intervals, Ea values for a set of compounds
Tested on: Erwinia amylovora PMV6076
MEASUREMENT PROTOCOL: Antibacterial activity (MIC), growth inhibition in microtiter plates
Format: cell-based
MEASUREMENT CONTEXT: Trypticase Soy Broth, 25 °C, 48 h, OD 600 nm (Bioscreen C), peptides at 3.1, 6.2, 12.5, 25, 50 μM, three replicates, experiment repeated twice, MIC = lowest concentration with no growth
Peptide text beside a SMILES is read from it.

Recorded MIC Intervals, Ea, per entry:
>  <COMPOUND>
CC(C)C[C@@H]1NC(=O)[C@H](CCCCN)NC(=O)[C@H](CCC(N)=O)NC(=O)[C@H](CC(C)C)NC(=O)[C@H](CCCCN)NC(=O)[C@H](Cc2ccccc2)NC(=O)[C@H](CCCCN)NC(=O)[C@H](CCCCN)NC(=O)[C@H](CCCCN)NC(=O)[C@H](CCCCN)NC1=O [BPC482] (cyclo(FKLQKLKKKK))

>  <TARGET ENTITY>
Erwinia amylovora PMV6076

>  <MIC Intervals, Ea>
>50 µM

$$$$
>  <COMPOUND>
CC(C)C[C@@H]1NC(=O)[C@H](CCC(N)=O)NC(=O)[C@H](CCCCN)NC(=O)[C@H](CCCCN)NC(=O)[C@H](CC(C)C)NC(=O)[C@H](Cc2ccccc2)NC(=O)[C@H](CCCCN)NC(=O)[C@H](CCCCN)NC(=O)[C@H](CCCCN)NC(=O)[C@H](CCCCN)NC1=O [BPC494] (cyclo(FLKKQLKKKK))

>  <TARGET ENTITY>
Erwinia amylovora PMV6076

>  <MIC Intervals, Ea>
>50 µM

$$$$
>  <COMPOUND>
CC(C)C[C@@H]1NC(=O)[C@H](CCCCN)NC(=O)[C@H](CCCCN)NC(=O)[C@H](CCCCN)NC(=O)[C@H](CCCCN)NC(=O)[C@H](CC(C)C)NC(=O)[C@H](CCCCN)NC(=O)[C@H](Cc2ccccc2)NC(=O)[C@H](CCCCN)NC(=O)[C@H](CCC(N)=O)NC1=O [BPC922] (cyclo(FKLKKKKLQK))

>  <TARGET ENTITY>
Erwinia amylovora PMV6076

>  <MIC Intervals, Ea>
>50 µM

$$$$
>  <COMPOUND>
CC(C)C[C@@H]1NC(=O)[C@H](CCC(N)=O)NC(=O)[C@H](Cc2ccccc2)NC(=O)[C@H](CC(C)C)NC(=O)[C@H](CCCCN)NC(=O)[C@H](CCCCN)NC(=O)[C@H](CCCCN)NC(=O)[C@H](CCCCN)NC(=O)[C@H](CCCCN)NC(=O)[C@H](CCCCN)NC1=O [BPC486] (cyclo(FQLKKKKKKL))

>  <TARGET ENTITY>
Erwinia amylovora PMV6076

>  <MIC Intervals, Ea>
>50 µM

$$$$
>  <COMPOUND>
CC(C)C[C@@H]1NC(=O)[C@H](CCCCN)NC(=O)[C@H](CCCCN)NC(=O)[C@H](Cc2ccccc2)NC(=O)[C@H](CCCCN)NC(=O)[C@H](CCCCN)NC(=O)[C@H](CCCCN)NC(=O)[C@H](CC(C)C)NC(=O)[C@H](CCCCN)NC(=O)[C@H](CCC(N)=O)NC1=O [BPC198, c(KLKKKFKKLQ)] (cyclo(FKKLQKLKKK))

>  <TARGET ENTITY>
Erwinia amylovora PMV6076

>  <MIC Intervals, Ea>
12.5 to 25 µM

$$$$
>  <COMPOUND>
CC(C)C[C@@H]1NC(=O)[C@H](CCCCN)NC(=O)[C@H](CCCCN)NC(=O)[C@H](CCCCN)NC(=O)[C@H](CC(C)C)NC(=O)[C@H](CCCCN)NC(=O)[C@H](CCC(N)=O)NC(=O)[C@H](Cc2ccccc2)NC(=O)[C@H](CCCCN)NC(=O)[C@H](CCCCN)NC1=O [BPC924] (cyclo(FQKLKKKLKK))

>  <TARGET ENTITY>
Erwinia amylovora PMV6076

>  <MIC Intervals, Ea>
12.5 to 25 µM

$$$$

Alright, here's another compound for you.
Task item: Given CC(C)C[C@@H]1NC(=O)[C@H](CCCCN)NC(=O)[C@H](CCCCN)NC(=O)[C@H](CCCCN)NC(=O)[C@H](CCC(N)=O)NC(=O)[C@H](Cc2ccccc2)NC(=O)[C@H](CCCCN)NC(=O)[C@H](CCCCN)NC(=O)[C@H](CCCCN)NC(=O)[C@H](CC(C)C)NC1=O [BPC492] (cyclo(FQKKKLLKKK)) , state its recorded MIC Intervals, Ea.
Reply: >50 µM

###

Tested on: Erwinia amylovora PMV6076
MEASUREMENT PROTOCOL: Antibacterial activity (MIC), growth inhibition in microtiter plates
Assay type: cell-based
MEASUREMENT CONTEXT: Trypticase Soy Broth, 25 °C, 48 h, OD 600 nm (Bioscreen C), peptides at 3.1, 6.2, 12.5, 25, 50 μM, three replicates, experiment repeated twice, MIC = lowest concentration with no growth
Peptide text beside a SMILES is read from it.
PROPERTY LABEL: MIC Intervals, Ea

Task item: Param readout = MIC Intervals, Ea; param system = Erwinia amylovora PMV6076; param query = CC(C)C[C@@H]1NC(=O)[C@H](CCCCN)NC(=O)[C@H](CCCCN)NC(=O)[C@H](CCCCN)NC(=O)[C@H](Cc2ccccc2)NC(=O)[C@H](CCCCN)NC(=O)[C@H](CCC(N)=O)NC(=O)[C@H](CC(C)C)NC(=O)[C@H](CCCCN)NC(=O)[C@H](CCCCN)NC1=O [BPC918] (cyclo(FKKKLKKLQK)) ; response: value
Reply: 12.5 to 25 µM

Task item: Param readout = MIC Intervals, Ea; param system = Erwinia amylovora PMV6076; param query = CC(C)C[C@@H]1NC(=O)[C@H](CCC(N)=O)NC(=O)[C@H](CC(C)C)NC(=O)[C@H](Cc2ccccc2)NC(=O)[C@H](CCCCN)NC(=O)[C@H](CCCCN)NC(=O)[C@H](CCCCN)NC(=O)[C@H](CCCCN)NC(=O)[C@H](CCCCN)NC(=O)[C@H](CCCCN)NC1=O [BPC484] (cyclo(FLQLKKKKKK)) ; response: value
Reply: >50 µM

Task item: Param readout = MIC Intervals, Ea; param system = Erwinia amylovora PMV6076; param query = CC(C)C[C@@H]1NC(=O)[C@H](CCCCN)NC(=O)[C@H](CCCCN)NC(=O)[C@H](CCC(N)=O)NC(=O)[C@H](CC(C)C)NC(=O)[C@H](CCCCN)NC(=O)[C@H](CCCCN)NC(=O)[C@H](Cc2ccccc2)NC(=O)[C@H](CCCCN)NC(=O)[C@H](CCCCN)NC1=O [BPC194, c(KKLKKFKKLQ)] (cyclo(FKKLQKKLKK)) ; response: value
Reply: 6.2 to 12.5 µM

Task item: Param readout = MIC Intervals, Ea; param system = Erwinia amylovora PMV6076; param query = CC(C)C[C@@H]1NC(=O)[C@H](CCCCN)NC(=O)[C@H](CCCCN)NC(=O)[C@H](CCCCN)NC(=O)[C@H](Cc2ccccc2)NC(=O)[C@H](CCCCN)NC(=O)[C@H](CCC(N)=O)NC(=O)[C@H](CCCCN)NC(=O)[C@H](CCCCN)NC(=O)[C@H](CC(C)C)NC1=O [BPC920] (cyclo(FKKKLLKKQK)) ; response: value
Reply: >50 µM

Task item: Param readout = MIC Intervals, Ea; param system = Erwinia amylovora PMV6076; param query = CC(C)C[C@@H]1NC(=O)[C@H](CCCCN)NC(=O)[C@H](CCC(N)=O)NC(=O)[C@H](Cc2ccccc2)NC(=O)[C@H](CCCCN)NC(=O)[C@H](CC(C)C)NC(=O)[C@H](CCCCN)NC(=O)[C@H](CCCCN)NC(=O)[C@H](CCCCN)NC(=O)[C@H](CCCCN)NC1=O [BPC488] (cyclo(FQKLKKKKLK)) ; response: value
Reply: >50 µM
